Tested on: common ragweed (Ambrosia artemisizfolia L., AMBEL)
assayMethodText: Post-emerge test, greenhouse herbicide activity screening
Type: in vivo
condition: post-emerge, 63 g ai/ha, 14 days after application, rating scale 0-100
propertyMeasured: phytotoxicity rating AMBEL
API doc: respond with a numeric literal and nothing else, no unit.

Report phytotoxicity rating AMBEL for `COc1c(Cl)cc(F)c(-n2c(=O)cc(C(F)(F)F)n(C)c2=O)c1NC(=O)c1c(F)cccc1F` tested on common ragweed (Ambrosia artemisizfolia L., AMBEL).
50

What measured phytotoxicity rating AMBEL is associated with `CNC(=O)N(C(=O)NC)c1c(OC)c(Cl)cc(F)c1-n1c(=O)cc(C(F)(F)F)n(C)c1=O` on common ragweed (Ambrosia artemisizfolia L., AMBEL)?
0

Lab note: need phytotoxicity rating AMBEL for `COc1c(Cl)cc(F)c(-n2c(=O)cc(C(F)(F)F)n(C)c2=O)c1NC(=O)c1ccc(OC(F)(F)F)cc1` on common ragweed (Ambrosia artemisizfolia L., AMBEL), anyone have it?
70

API: value(readout= phytotoxicity rating AMBEL, system= common ragweed (Ambrosia artemisizfolia L., AMBEL), query= `COc1c(Cl)cc(F)c(-n2c(=O)cc(C(F)(F)F)n(C)c2=O)c1N(C(=O)c1ccc(C(F)(F)F)cc1)C(=O)c1ccc(C(F)(F)F)cc1` )
70

Query phytotoxicity rating AMBEL on common ragweed (Ambrosia artemisizfolia L., AMBEL) for `COC(=O)N(C(=O)OC)c1c(OC)c(Cl)cc(F)c1-n1c(=O)cc(C(F)(F)F)n(C)c1=O`
0

Item `COc1c(Cl)cc(F)c(-n2c(=O)cc(C(F)(F)F)n(C)c2=O)c1NC(=O)c1ccc(Br)cc1` with common ragweed (Ambrosia artemisizfolia L., AMBEL) - phytotoxicity rating AMBEL?
100

GET /values?readout=phytotoxicity rating AMBEL&system=common ragweed (Ambrosia artemisizfolia L., AMBEL)&item= `COc1c(Cl)cc(F)c(-n2c(=O)cc(C(F)(F)F)n(C)c2=O)c1NC(=O)c1ccc(C#N)cc1`
100

Entry `COc1c(Cl)cc(F)c(-n2c(=O)cc(C(F)(F)F)n(C)c2=O)c1NC(=O)c1ccccc1Cl` , system common ragweed (Ambrosia artemisizfolia L., AMBEL): what phytotoxicity rating AMBEL was measured?
70

# returns recorded phytotoxicity rating AMBEL (system: common ragweed (Ambrosia artemisizfolia L., AMBEL)) for `COc1c(Cl)cc(F)c(-n2c(=O)cc(C(F)(F)F)n(C)c2=O)c1NC(=O)c1cccc2ccccc12`
70

Lab note: need phytotoxicity rating AMBEL with common ragweed (Ambrosia artemisizfolia L., AMBEL) for entry `COc1c(Cl)cc(F)c(-n2c(=O)cc(C(F)(F)F)n(N)c2=O)c1NC(=O)c1ccc(F)cc1F` , please look it up.
60

Which phytotoxicity rating AMBEL is reported with common ragweed (Ambrosia artemisizfolia L., AMBEL) for this entry: `COC(=O)Nc1c(OC)c(Cl)cc(F)c1-n1c(=O)cc(C(F)(F)F)n(C)c1=O` ?
40

Query the reported phytotoxicity rating AMBEL for common ragweed (Ambrosia artemisizfolia L., AMBEL); item: `COc1c(Cl)cc(F)c(-n2c(=O)cc(C(F)(F)F)n(C)c2=O)c1NC(=O)c1ccc(F)cc1F`
70

Give the reported phytotoxicity rating AMBEL for `COc1c(Cl)cc(F)c(-n2c(=O)cc(C(F)(F)F)n(C)c2=O)c1NC(=O)c1cccc(F)c1F` (system: common ragweed (Ambrosia artemisizfolia L., AMBEL)).
50
